assay_explanation: in vivo
condition_notes: Sprague Dawley, rat, po, 10 mg/kg, Cmax
property_name: Cmax (ng/mL)

• C[C@@H](O)[C@H](N)C(=O)N1CCN(C)CC12CNC2=O (single isomer, unassigned) [EJ-1] = 186

* * *

measured_target: NMDAR2C (Homo sapiens)
Construct: expressed in transfected cells; host or cells: HEK cells (membrane extract)
Sequence (Q14957 20-1233, species assumed, other chains not shown): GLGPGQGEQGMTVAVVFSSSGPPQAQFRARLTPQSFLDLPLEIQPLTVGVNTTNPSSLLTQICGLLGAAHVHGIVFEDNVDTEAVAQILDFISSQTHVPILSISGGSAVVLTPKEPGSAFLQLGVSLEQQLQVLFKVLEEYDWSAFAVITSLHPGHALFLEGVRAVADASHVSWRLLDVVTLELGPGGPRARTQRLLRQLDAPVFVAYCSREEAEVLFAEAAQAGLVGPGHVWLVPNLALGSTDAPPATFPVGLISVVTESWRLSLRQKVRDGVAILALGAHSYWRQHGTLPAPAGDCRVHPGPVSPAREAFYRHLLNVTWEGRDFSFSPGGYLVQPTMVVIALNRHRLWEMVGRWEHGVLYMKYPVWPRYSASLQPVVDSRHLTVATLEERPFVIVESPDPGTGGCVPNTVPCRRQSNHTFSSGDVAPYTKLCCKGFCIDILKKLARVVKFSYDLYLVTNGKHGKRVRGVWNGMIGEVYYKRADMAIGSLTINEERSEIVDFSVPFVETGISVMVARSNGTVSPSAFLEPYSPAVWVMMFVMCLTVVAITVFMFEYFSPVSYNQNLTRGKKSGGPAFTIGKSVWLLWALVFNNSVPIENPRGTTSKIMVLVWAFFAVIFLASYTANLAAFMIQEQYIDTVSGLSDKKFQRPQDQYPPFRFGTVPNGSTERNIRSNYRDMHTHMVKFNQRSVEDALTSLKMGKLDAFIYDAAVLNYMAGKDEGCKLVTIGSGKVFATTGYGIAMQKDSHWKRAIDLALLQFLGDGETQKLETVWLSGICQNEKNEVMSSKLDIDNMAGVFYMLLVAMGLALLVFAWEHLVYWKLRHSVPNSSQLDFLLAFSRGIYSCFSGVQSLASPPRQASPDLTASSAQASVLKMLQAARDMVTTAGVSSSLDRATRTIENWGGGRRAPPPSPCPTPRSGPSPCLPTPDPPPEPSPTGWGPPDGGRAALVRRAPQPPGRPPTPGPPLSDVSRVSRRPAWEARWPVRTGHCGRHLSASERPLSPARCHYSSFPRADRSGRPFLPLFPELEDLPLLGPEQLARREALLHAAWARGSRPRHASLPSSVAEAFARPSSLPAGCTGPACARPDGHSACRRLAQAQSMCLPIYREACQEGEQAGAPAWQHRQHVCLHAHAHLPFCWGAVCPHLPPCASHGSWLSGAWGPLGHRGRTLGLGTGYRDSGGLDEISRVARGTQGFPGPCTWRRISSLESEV
assay_explanation: [3H]MK-801 binding, NMDAR2C expressing HEK cell membranes
Format: biochemical
condition_notes: 50 μM glutamate, read-out: NMDAR2C B: log EC50 (converted)
Measured EC50, listed per entry for reference.
property_name: EC50

* CC(C)(C)OC(=O)N1CCNC2(CNC2=O)C1 (single isomer, unassigned) [EB-2] | < 1 nM
* CC(C)(C)OC(=O)N1CCNC2(CNC2=O)C1 (single isomer, unassigned) [EB-1] | > 1 nM
* CC(C)(C)OC(=O)N1CCN(C(=O)OC(C)(C)C)C2(CNC2=O)C1 (single isomer, unassigned) [EE-2] | < 1 nM
* CN1CCN(Cc2ccccc2)C2(CNC2=O)C1 (single isomer, unassigned) [EG-2] | < 1 nM
* C[C@@H](O)[C@H](N)C(=O)N1CCN(Cc2ccccc2)C2(CNC2=O)C1 (single isomer, unassigned) [EL-2] | < 1 nM
* O=C1NCC12CNCCN2Cc1ccccc1 (single isomer, unassigned) [ED-2] | < 1 nM
* CN1CCN(Cc2ccccc2)C2(CNC2=O)C1 (single isomer, unassigned) [EG-1] | > 1 nM
